Taken from paper PMC7763995.

# PROTOCOL DETAILS: ABTS radical cation scavenging activity assay
# EXPERIMENTAL SETUP: 1 h incubation
QUANTITY KIND: IC50 (µM)
Hi! Could you send only the number? It should be in µM, unit omitted.

Check out these entries, answers already filled in.
| COMPOUND | UNIT INFO | IC50 |
| --- | --- | --- |
| Cc1c(C)c2c(c(C)c1O)CCC(C)(C(=O)O)O2 (centres unmarked) [Trolox, reference compound] | µM | 20.1 |
| CC(C)(C)c1cc(C=NCCNc2c3c(nc4ccccc24)CCCCC3)cc(C(C)(C)C)c1O | µM | 17.8 |
| CC(C)(C)c1cc(C=NCCNc2c3c(nc4ccccc24)CCCC3)cc(C(C)(C)C)c1O | µM | 17.1 |
| CC(C)(C)c1cc(CNCCNc2c3c(nc4ccccc24)CCC3)cc(C(C)(C)C)c1O | µM | 12.7 |
| CC(C)(C)c1cc(C=NCCNc2c3c(nc4ccccc24)CCC3)cc(C(C)(C)C)c1O | µM | 22.3 |
| CC(C)(C)c1cc(CNCCNc2c3c(nc4ccccc24)CCCCC3)cc(C(C)(C)C)c1O | µM | 14.1 |
| Cc1cc(C(C)(C)C)c(O)c(C(C)(C)C)c1 [BHT, butylated hydroxytoluene, reference compound] | µM | 22.4 |

Query compound follows.
Input line: GET /values?readout=IC50&item= `CC(C)(C)c1cc(C=NCCNc2c3c(nc4ccccc24)CCCCCC3)cc(C(C)(C)C)c1O`
Output line: 17.8

----------
# TEST TARGET: Equine serum BChE (Equus caballus, UniProt P81908)
# Construct: equine serum BChE; purchased Sigma-Aldrich; host or cells: equine serum
# Sequence (P81908 whole entry): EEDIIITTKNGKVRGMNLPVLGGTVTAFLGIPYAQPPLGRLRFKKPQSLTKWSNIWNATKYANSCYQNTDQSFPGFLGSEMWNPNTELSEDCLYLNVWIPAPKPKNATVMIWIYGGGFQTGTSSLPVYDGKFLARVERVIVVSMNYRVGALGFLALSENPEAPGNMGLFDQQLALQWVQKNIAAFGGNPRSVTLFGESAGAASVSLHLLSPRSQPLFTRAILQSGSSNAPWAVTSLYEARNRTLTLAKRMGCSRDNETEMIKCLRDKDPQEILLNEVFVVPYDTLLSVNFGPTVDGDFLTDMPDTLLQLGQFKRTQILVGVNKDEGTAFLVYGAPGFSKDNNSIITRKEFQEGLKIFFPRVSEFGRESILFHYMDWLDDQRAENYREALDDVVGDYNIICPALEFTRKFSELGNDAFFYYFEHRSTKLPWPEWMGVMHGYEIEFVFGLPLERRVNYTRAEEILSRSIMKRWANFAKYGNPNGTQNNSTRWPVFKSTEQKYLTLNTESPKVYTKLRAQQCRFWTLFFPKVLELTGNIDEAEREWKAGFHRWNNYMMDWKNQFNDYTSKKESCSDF
# PROTOCOL DETAILS: biochemical
# EXPERIMENTAL SETUP: mean ± SEM, n = 3; n.a. = not active; read-out: Equine Serum BChE, IC50
# Method: Measurements were performed with a FLUOStar Optima microplate reader (BMG Labtech, Ortenberg, Germany). Compounds were dissolved in DMSO, the incubation mixture contained 2% solvent.
pIC50 overview
// pIC50 here means minus log10 of the molar concentration (mol/L)

| MOLECULE | pIC50 |
| --- | --- |
| CC(C)(C)c1cc(C=NCCNc2c3c(nc4ccccc24)CCCC3)cc(C(C)(C)C)c1O [Compound 7b] | 5.79 |
| CC(C)(C)c1cc(C=NCCNc2c3c(nc4ccccc24)CCC3)cc(C(C)(C)C)c1O [Compound 7a] | 5.72 |
| CC(C)(C)c1cc(C=NCCNc2c3c(nc4ccccc24)CCCCCC3)cc(C(C)(C)C)c1O [Compound 7d] | 5.37 |

Input line: Recorded pIC50 for CC(C)(C)c1cc(C=NCCNc2c3c(nc4ccccc24)CCCCC3)cc(C(C)(C)C)c1O [Compound 7c] , please?
Output line: 6.38

----------
# TEST TARGET: Equine serum BChE (Equus caballus, UniProt P81908)
# Construct: equine serum BChE
# PROTOCOL DETAILS: Kinetic study of BChE inhibition, steady-state inhibition constants
# EXPERIMENTAL SETUP: Lineweaver-Burk plots; read-out: Ki (competitive component), BChE
QUANTITY KIND: Ki (nM)
Unit nM implied. Number only.

Input line: Suppose we examine the compound `CC(C)(C)c1cc(C=NCCNc2c3c(nc4ccccc24)CCCCC3)cc(C(C)(C)C)c1O` ; what Ki value has been reported?
Output line: 164
